Origin of values: PubChem BioAssay (NCI)

Tested on: CAKI-1 renal
test method notes: NCI-60 one-dose screen, 48 h
test settings: 10 µM unless noted
Compounds without any hit were thinned out: in the full panel of roughly 83,000, 20% have a hit. The source made the active and inactive calls. How the source made its calls: active means growth percent below 10; inactive means the rest.
I would appreciate it if you answered using one of these outcomes: class 1 = active, class 0 = inactive

q: Please state the recorded outcome for this compound: CC1(C)CC[C@]2(C(=O)O)CC[C@]3(C)C(=CC[C@@H]4[C@@]5(C)Cc6c([nH]c7ccccc67)C(C)(C)[C@@H]5CC[C@]43C)[C@@H]2C1
a: class 0

q: Please state the recorded outcome for this compound: O=C(c1nnc(Nc2ccccc2Br)o1)c1c[nH]c2ccccc12
a: class 0

q: Please state the recorded outcome for this compound: Oc1c(Cl)cc(Cl)c(Cl)c1CNCCNCc1c(O)c(Cl)cc(Cl)c1Cl
a: class 1

q: Please state the recorded outcome for this compound: N#Cc1c(NC(=O)NCc2ccccc2)sc2c1CCCCC2
a: class 0

q: Please state the recorded outcome for this compound: O=C1Nc2cc(-c3cccc([N+](=O)[O-])c3)ccc2/C1=C/c1ccc[nH]1
a: class 0

q: Please state the recorded outcome for this compound: COC(=O)/C=C1\S/C(=N\NC(=O)c2cc3ccc2/C=C\c2ccc(cc2)/C=C\3)N(Cc2ccccc2)C1=O
a: class 0

q: Please state the recorded outcome for this compound: C=C(C)[C@@H]1CC[C@]2(C(=O)N[C@H](CO)Cc3ccccc3)CC[C@]3(C)[C@H](CC[C@@H]4[C@@]5(C)CCCNC(C)(C)[C@@H]5CC[C@]43C)[C@@H]12
a: class 1

q: Please state the recorded outcome for this compound: Cc1ccc(C(=O)/C(=C\c2ccc([N+](=O)[O-])cc2)S(=O)Cc2ccc(F)cc2)cc1 (centres undefined)
a: class 0

q: Please state the recorded outcome for this compound: O=[N+]([O-])CC(c1ccccc1)c1c[nH]c2ccccc12 (centres undefined)
a: class 0

* * *

System: COLO 205 colon
test method notes: NCI-60 one-dose screen, 48 h (100 = growth as untreated, 0 = no growth, -100 = all killed)
test settings: 10 µM unless noted
This is part of a sample that, as a whole, favours compounds with a hit. Of some 83,000 tested, about 20% had one in any assay.
Kindly supply the reported growth values for the records listed here.
Lab book: enter the figure in %, no units written.

q: So what's the measured growth for this one? O=C1Nc2cc(-c3cccc([N+](=O)[O-])c3)ccc2/C1=C/c1ccc[nH]1
a: 85.9

q: So what's the measured growth for this one? CN1CCN(CCNc2nccc(-c3c(-c4cccc(O)c4)nc4sccn34)n2)S1(=O)=O
a: 17.6

q: So what's the measured growth for this one? O=C(Cc1ccc(/C=C/C(=O)c2ncc[nH]2)cc1)Nc1ccc(Cl)cc1
a: 32.9

q: So what's the measured growth for this one? N#CC1=C(N)Oc2c(cnn2-c2ccc([N+](=O)[O-])cc2[N+](=O)[O-])C1c1ccccc1 (stereo not given)
a: 111

q: So what's the measured growth for this one? CCCOc1ccc(/C=N/Nc2cc(C)nc3ccc(Cl)cc23)cc1
a: -80.7

q: So what's the measured growth for this one? Fc1ccc(-c2cn3c(nc4ccccc43)c(-c3ccccc3)n2)cc1
a: 116

q: So what's the measured growth for this one? CC(=O)[C@@H]1CC[C@]2(CO)CC[C@]3(C)[C@H](CC[C@@H]4[C@@]5(C)CCCNC(C)(C)[C@@H]5CC[C@]43C)[C@@H]12
a: 106

q: So what's the measured growth for this one? CCOC(=O)CCN(CC(C)C)C(=S)Nc1ccccc1
a: 113

q: So what's the measured growth for this one? c1ccc2c(-c3nccs3)c[nH]c2c1
a: 119

q: So what's the measured growth for this one? O=[N+]([O-])CC(c1ccccc1)c1c[nH]c2ccccc12 (stereo not given)
a: 54.1

* * *

System: SW-620 colon
test method notes: NCI-60 one-dose screen, 48 h
test settings: 10 µM unless noted
Compounds without any hit were thinned out: in the full panel of roughly 83,000, 20% have a hit. Activity calls are given as the source filed them. The calls were made as follows: active = growth percent below 10; inactive = the rest.
I would appreciate it if you answered using one of these outcomes: active, inactive

q: Please state the recorded outcome for this molecule: O=C(C[n+]1cccc2ccccc21)c1ccc(O)c(O)c1
a: inactive

q: Please state the recorded outcome for this molecule: C=C1C(=O)O[C@H]2[C@H]1CC/C(C(=O)NCCCCCNC(=O)/C1=C/CC[C@@]3(C)O[C@H]3[C@H]3OC(=O)C(=C)[C@@H]3CC1)=C\CC[C@@]1(C)O[C@@H]21
a: inactive

q: Please state the recorded outcome for this molecule: C/C=C(\C)C(=O)NC1=CC[C@@]2(C)C(=CCC3C2CC[C@@]2(C)C3CC[C@@H]2C(C)N(C)C)C1=O (some centres not stated)
a: active

q: Please state the recorded outcome for this molecule: C=C(C)[C@@H]1CC[C@]2(C(=O)N3CCN(C)CC3)CC[C@]3(C)[C@H](CC[C@@H]4[C@@]5(C)C/C(=C/c6ccncc6)C(=O)C(C)(C)[C@@H]5CC[C@]43C)[C@@H]12
a: inactive

q: Please state the recorded outcome for this molecule: O=S(=O)(NCCCNc1nccc(-c2c(-c3cccc(F)c3)nc3sccn23)n1)c1cccc2ccccc12
a: inactive

q: Please state the recorded outcome for this molecule: CC1(C)CC[C@]2(C(=O)O)CC[C@]3(C)C(=CC[C@@H]4[C@@]5(C)Cc6c([nH]c7ccccc67)C(C)(C)[C@@H]5CC[C@]43C)[C@@H]2C1
a: inactive

q: Please state the recorded outcome for this molecule: COc1cccc(-c2nc3occn3c2-c2ccnc(NCCNS(=O)(=O)c3ccc(C(F)(F)F)cc3)n2)c1
a: inactive

q: Please state the recorded outcome for this molecule: Cc1cccc(-c2cn3ccnc3c(-c3ccc4ncn(Cc5ccccc5)c4c3)n2)c1
a: inactive

q: Please state the recorded outcome for this molecule: Fc1ccc2c(-c3cncn3CCc3ccccc3)c[nH]c2c1
a: inactive

q: Please state the recorded outcome for this molecule: CCCCC[n+]1ccc(SCC(=O)N(C)c2ccc(Oc3ccccc3)cc2)c2ccccc21
a: inactive

q: Please state the recorded outcome for this molecule: COc1ccc(-c2[nH][nH]c(=O)c2-c2nc3ccccc3s2)cc1
a: inactive

q: Please state the recorded outcome for this molecule: O=C1Nc2cc(-c3cccc([N+](=O)[O-])c3)ccc2/C1=C/c1ccc[nH]1
a: inactive

q: Please state the recorded outcome for this molecule: CCN1C(=O)N(CC)C2Nn3c(s/c(=C\c4ccc(OC)cc4)c3=O)=NC21 (configuration not stated)
a: inactive

q: Please state the recorded outcome for this molecule: O=S(=O)(NCCCNc1nccc(-c2c(-c3cccc(O)c3)nc3occn23)n1)c1ccc(Cl)cc1
a: inactive

q: Please state the recorded outcome for this molecule: Oc1c(Cl)cc(Cl)c(Cl)c1CNCCNCc1c(O)c(Cl)cc(Cl)c1Cl
a: inactive

q: Please state the recorded outcome for this molecule: O=C1Nc2cc(Cl)ccc2/C1=C\c1c(-c2ccc(F)cc2)nc2ccccn12
a: active

q: Please state the recorded outcome for this molecule: CC(Oc1ccc(C(=O)O)cc1C(F)(F)F)c1ccc(Oc2ccccc2)cn1 (configuration not stated)
a: inactive

* * *

Test system: UACC-257 melanoma
test method notes: NCI-60 one-dose screen, 48 h (100 = growth as untreated, 0 = no growth, -100 = all killed)
test settings: 10 µM unless noted
About 83,000 compounds went through this panel and 20% of them were active in at least one assay; those are over-represented in the sample as a whole.
measurement name: growth (%)
Lab book: enter the figure in %, no units written.

q: So what's the measured growth for this one? COc1cc2nc(-c3ccc(Cl)cc3)cc(OCCCN3CCOCC3)c2cc1OC
a: 1.42

q: So what's the measured growth for this one? O=C1Nc2cc(-c3ccc(NS(=O)(=O)c4ccccc4)cc3)ccc2/C1=C/c1ccc[nH]1
a: 110

q: So what's the measured growth for this one? C[C@H]1[C@H](C)CC[C@]2(C(=O)Nc3ccc4ncccc4c3)CC[C@]3(C)C(=CC[C@@H]4[C@@]5(C)CCCNC(C)(C)[C@@H]5CC[C@]43C)[C@H]12
a: -86.9

q: So what's the measured growth for this one? O=C1c2ccc3c4c(ccc(c24)C(=O)N1CCCNCc1ccccc1)C(=O)N(CCCNCc1ccccc1)C3=O
a: -95.2

q: So what's the measured growth for this one? Cc1ccc(-c2[nH][nH]c(=O)c2-c2nc3ccccc3s2)cc1
a: 104

* * *

System: KM12 colon
test method notes: NCI-60 one-dose screen, 48 h (100 = growth as untreated, 0 = no growth, -100 = all killed)
test settings: 10 µM unless noted
About 83,000 compounds went through this panel and 20% of them were active in at least one assay; those are over-represented in the sample as a whole.
measurement name: growth (%)
Lab book: enter the figure in %, no units written.

q: So what's the measured growth for this one? O=C1Nc2cc(-c3ccc(NC(=O)c4ccccc4)cc3)ccc2/C1=C/c1ccc[nH]1
a: 68.7

q: So what's the measured growth for this one? COc1cc2c3c(c4c5ccccc5[nH]c4c2c(OC)c1OC)C(=O)N(CCN1CCOCC1)C3=O
a: 61

q: So what's the measured growth for this one? CC1(C)CC(O)CCCCCCOc2c(CN)cccc2NC(=O)c2nc(cnc2N)-c2ccc(cc2)S1(=O)=O (stereo not given)
a: -10.7

q: So what's the measured growth for this one? Cn1nc(CC#N)c2c(=N)n(N)cnc21
a: 102

q: So what's the measured growth for this one? CCNC(=O)Oc1ccc(/C(=C(\C)c2ccccc2)c2ccc(OCCCN(C)C)cc2)cc1
a: 65.8
